Measured % Inhibition values are reported for all entries that follow.
# Tested on: P. falciparum stage V gametocytes
# Parameters: BacTiter-Glo ATP luminescence viability of purified stage V gametocytes in 384-well plates, per cent inhibition versus DMSO
# conditions: 48 h, 5 µM; inhibitor
Out of some 13,000 compounds screened, about 3,200 (25%) showed an effect of 50% or more. This is one part of the list.
Use % as the unit, but write only the number.

These solved cases illustrate the format of a correct answer.
| compound | measure | observed |
| --- | --- | --- |
| CCCN(CCCCCCNCCc1ccc(Cl)cc1)CCc1ccc(O)c(O)c1 | % Inhibition | 104.4 |
| Cc1cc(C)n2nc(C(=O)Nc3cc(C(F)(F)F)ccc3N3CCOCC3)nc2n1 | % Inhibition | 4.468 |
| Nc1nonc1-c1nc2c(-c3cccc(Cl)c3)nccc2n1CCCNC(=O)Cc1ccc(Cl)cc1 | % Inhibition | 32.87 |
| CCOC(=O)c1c(C)noc1Nc1cccc(C)c1C | % Inhibition | -30.94 |
| CCn1c(-c2nonc2N)nc2c(-c3cccc(NC(=O)NC45CC6CC(CC(C6)C4)C5)c3)ncc(OCCCN)c21 | % Inhibition | 20.74 |

In: Fill in the recorded % Inhibition for this compound, with P. falciparum stage V gametocytes as test system: "CCn1c(-c2nonc2N)nc2cnc(Oc3cccc(NC(=O)c4ccc(OCCCN5CCCCC5)cc4)c3)cc21"
Out: -4.348

In: Fill in the recorded % Inhibition for this compound, with P. falciparum stage V gametocytes as test system: "Fc1cccc(COc2ccc(Nc3ncnc4sc(C#C[C@H]5CCCN5)cc34)cc2F)c1"
Out: -0.575

In: Fill in the recorded % Inhibition for this compound, with P. falciparum stage V gametocytes as test system: "CCn1c(-c2nonc2N)nc2c(-c3cccc(NC(=O)Nc4ccc5c(c4)CCC5)c3)ncc(OCCCN)c21"
Out: 95.55

In: Fill in the recorded % Inhibition for this compound, with P. falciparum stage V gametocytes as test system: "COc1cccc(Nc2c(C(N)=O)cnc3ccc(-c4ccccc4)cc23)c1"
Out: 39.19

In: Fill in the recorded % Inhibition for this compound, with P. falciparum stage V gametocytes as test system: "Oc1ccc(CCNCCCCCCNCCc2ccc(-c3ccccc3)cc2)cc1O"
Out: 113.1

In: Fill in the recorded % Inhibition for this compound, with P. falciparum stage V gametocytes as test system: "CCn1c(-c2nonc2N)nc2c(-c3cccc(NC(=O)Nc4ccc(Cl)cc4)c3)ncc(OCCCN)c21"
Out: 102.5

In: Fill in the recorded % Inhibition for this compound, with P. falciparum stage V gametocytes as test system: "CCn1c(-c2nonc2N)nc2c(-c3cccc(NC(=O)Nc4cccc(Cl)c4)c3)ncc(OCCCN)c21"
Out: 104.3

In: Fill in the recorded % Inhibition for this compound, with P. falciparum stage V gametocytes as test system: "COc1cc(F)c2ncc(Cl)c(CCN3CCC(NCc4cc5c(cn4)OCCO5)CC3)c2c1"
Out: 7.425

---

Measured % Inhibition values are reported for all entries that follow.
# System: P. falciparum stage V gametocytes
# Design: BacTiter-Glo ATP luminescence viability of purified stage V gametocytes in 384-well plates, per cent inhibition versus DMSO
# conditions: 48 h, 5 µM; inhibitor
Hit rate of the full screen: of about 13,000 compounds, about 3,200 (25%) showed an effect of 50% or more. The list shows a part of the results.
Use % as the unit, but write only the number.

These solved cases illustrate the format of a correct answer.
| compound | measure | observed |
| --- | --- | --- |
| CN1CCN(c2ccnc3ccc(NC(=O)Cc4ccc(-c5ccncc5)c5ccccc45)cc23)CC1 [TCMDC-139256] | % Inhibition | 19.54 |
| Cc1cc(SC(C)(C)C)cc2c(Cl)c(C(N)=O)cnc12 [TCMDC-135415] | % Inhibition | 114.9 |
| OCc1ccc(-c2cncc(Nc3ccc(F)c(Cl)c3)c2)cc1 [TCMDC-136671] | % Inhibition | -20.21 |
| CS(=O)(=O)c1ccc2nc(-c3cc(-c4ccc(OCCN5CCOCC5)cc4)cnc3N)[nH]c2c1 [TCMDC-133720] | % Inhibition | 8.028 |
| CCCNC[C@@H](O)[C@H](Cc1ccccc1)NC(=O)c1cc(NCC)cc(N2CCCC2=O)c1 [TCMDC-138890] | % Inhibition | 18.6 |
| COc1cc(Nc2nccc(N3CCC(NC(=O)Nc4cc(C)ccc4C)C3)n2)cc(OC)c1OC (stereo not shown) [TCMDC-133626] | % Inhibition | -44.43 |

In: State the recorded % Inhibition for this entry: COc1ccc2c(NN=Cc3ccncc3)cc(C)nc2c1 [TCMDC-142038]
Out: 85.05

In: State the recorded % Inhibition for this entry: CCCCCCCN1CC[C@@H](CCCc2ccnc3ccc(OCCC4CCNCC4)cc23)[C@@H](CC)C1 [TCMDC-139819]
Out: 116.4

In: State the recorded % Inhibition for this entry: CC(C)(C)OC(=O)C1CCCN(Cc2ccc(-c3cccc(-c4nc5ccccc5[nH]4)c3)cc2)C1.O=C(O)C(F)(F)F (stereo not shown) [TCMDC-132560]
Out: 11.65

In: State the recorded % Inhibition for this entry: COc1ccc2nc(C)cc(Nc3ccc(N4CCN(C)CC4)cc3)c2c1 [TCMDC-125813]
Out: 1.536

In: State the recorded % Inhibition for this entry: COc1cc2c(cc1C(F)(F)F)N(C(=O)Nc1cc(F)c(F)c(-c3cccnc3)c1)CC2 [TCMDC-139061]
Out: 5.239

In: State the recorded % Inhibition for this entry: CC(C)COc1ccc(Cl)cc1Nc1nc(-c2nc3ccccc3[nH]2)cs1 [TCMDC-137041]
Out: 2.246

In: State the recorded % Inhibition for this entry: CS(=O)(=O)c1ccccc1CNC(=O)c1ccc(-c2cccc(-c3nc4cc(C(F)(F)F)ccc4[nH]3)c2)cc1 [TCMDC-132504]
Out: -46.91

The reported measurements were obtained from paper PMC4552634.
